All figures here come from patent US20090298811A1.

target: human CB1 receptor (Homo sapiens); assay: GTPγS binding on membranes of CHO cells expressing the human CB1 receptor; details: CHO cell membranes, [35S] GTPγS
Sequence (P21554 whole entry): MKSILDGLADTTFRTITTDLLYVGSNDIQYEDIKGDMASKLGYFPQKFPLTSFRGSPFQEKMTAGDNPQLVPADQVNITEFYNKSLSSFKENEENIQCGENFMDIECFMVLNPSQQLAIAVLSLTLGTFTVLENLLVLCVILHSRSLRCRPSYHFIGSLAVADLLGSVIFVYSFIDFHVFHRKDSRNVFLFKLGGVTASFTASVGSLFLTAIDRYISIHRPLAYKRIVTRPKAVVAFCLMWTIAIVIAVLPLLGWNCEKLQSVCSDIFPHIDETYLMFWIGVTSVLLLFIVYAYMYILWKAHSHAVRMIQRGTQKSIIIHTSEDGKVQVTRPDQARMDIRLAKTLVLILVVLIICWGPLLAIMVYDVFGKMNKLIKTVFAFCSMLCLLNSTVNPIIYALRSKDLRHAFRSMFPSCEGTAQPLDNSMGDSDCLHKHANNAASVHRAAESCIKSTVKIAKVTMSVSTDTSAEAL
property: EC50 (µM)
The response must be a number in µM with no trailing unit.

Lab book: EC50 of "CCCCCn1c(=O)n(C(=O)N[C@H](C(N)=O)C(C)C)c2ccccc21" noted as 0.422

Lab book: EC50 of "CC(C)(C)[C@H](NC(=O)n1c(=O)n(Cc2ccc(F)cc2)c2ccccc21)C(N)=O" noted as 0.00474

Lab book: EC50 of "Cc1cc(CNC(=O)n2c(=O)n(CC3CCOCC3)c3ccccc32)c(C)o1" noted as 0.057

We next turn to a different compound, shown below.
Lab book: EC50 of "CC(C)(C)[C@H](NC(=O)n1c(=O)n(CC2CCOCC2)c2ccccc21)C(=O)NC1CC1" noted as 0.0886
